System: Gli-luciferase activity
Test: Reporter gene assay (RGA) in TMHh12 cells, antagonism of Gli-luciferase activity in the presence of a Smo agonist
Type: cell-based
Settings: 25 nM small molecule Smo agonist, read-out: RGA (25 nM Smo agonist) IC50
pIC50: −log10 of the molar value.
recorded metric: pIC50

Use the examples below as a reference point.
Cc1cc(Cc2ccc(F)cc2)nnc1N1CCN(c2ccc(C#N)cn2)CC1; 5.00 to 6.00
c1ccc(Cc2nnc(N3CCN(c4ccncc4)CC3)c3ccccc23)cc1; 5.00 to 6.00
N#Cc1cccc(C(=O)N2CCC(c3cn(Cc4ccccc4)c4ccccc34)CC2)c1; 5.00 to 6.00

Proceeding to the next compound to report its pIC50.
## Input Which pIC50 is listed for `C[C@@H]1CN(c2nnc(Cc3ccccc3)c3ccccc23)CCN1c1ccc(C(C)(C)O)cn1` ?
## Output > 7.00

---

Some compounds, each annotated with its measured IC50.
Test system: Gli-luciferase activity
Assay: Reporter gene assay (RGA) in TMHh12 cells, antagonism of Gli-luciferase activity in the presence of a Smo agonist
Format: cell-based
Conditions: 25 nM small molecule Smo agonist, read-out: RGA (25 nM Smo agonist) IC50

CCOC(=O)c1ccc(N2CCN(c3nnc(Cc4cccc(F)c4)c4ccccc34)CC2)nc1 [Example 185]; 1 to 10 µM
CN(Cc1ccc(N2CCN(c3nnc(Cc4ccccc4)c4ccccc34)CC2)nc1)C1CCOCC1 [Example 226]; 0.1 to 1 µM
C[C@H]1CN(c2nnc(Cc3ccccc3)c3ccccc23)CCN1c1ccc(C#N)cn1 [Example 143]; 0.1 to 1 µM
CCCc1cnc(N2CCN(c3nnc(Cc4ccccc4)c4ccccc34)CC2)nc1 [Example 42]; 0.1 to 1 µM
CC(C)(O)c1ccc(N2CCN(c3nnc(Cc4ccc(F)cc4)c4ccccc34)CC2)nc1 [Example 191]; < 0.1 µM

## Input // lookup IC50 for OC(c1ccc(N2CCN(c3nnc(Cc4ccccc4)c4ccccc34)CC2)nc1)C1CC1 (stereo not drawn) [Example 219]
## Output 0.1 to 1 µM

## Input State the recorded IC50 for this entry: CN(C)CC(=O)NCc1ccc(N2CCN(c3nnc(Cc4ccccc4)c4ccccc34)CC2)nc1 [Example 212]
## Output 0.1 to 1 µM

## Input Request the reported IC50 associated with COC(=O)Nc1ccc(N2CCN(c3nnc(Cc4ccccc4)c4ccccc34)CC2)nc1 [Example 239]
## Output 0.1 to 1 µM

## Input // lookup IC50 for CC(C)(N)c1ccc(N2CCN(c3nnc(Cc4ccccc4)c4ccccc34)CC2)nc1 [Example 120]
## Output < 0.1 µM

## Input # input compound: c1ccc(Cc2nnc(N3CCN(c4ccc(CNC5COC5)cn4)CC3)c3ccccc23)cc1 [Example 230] ; wanted: its IC50
## Output 0.1 to 1 µM

---

molecules and their reported pIC50
Test system: Gli-luciferase activity
Experiment: Reporter gene assay (RGA) in TMHh12 cells, antagonism of Gli-luciferase activity in the presence of a Smo agonist
Format: cell-based
Conditions: 25 nM small molecule Smo agonist, read-out: RGA (25 nM Smo agonist) IC50
pIC50: −log10 of the molar value.

Here are 5 molecules together with their reported answers.
Cc1ccccc1N1CCN(c2nnc(Cc3ccccc3)c3ccccc23)CC1 [Example 38]; 5.00 to 6.00
N#Cc1ccc(N2CCN(c3nnc(CCc4ccccc4)c4ccccc34)CC2)nc1 [Example 61]; 5.00 to 6.00
CN(CCO)C(=O)c1ccc(N2CCN(c3nnc(Cc4ccc(F)cc4F)c4ccccc34)CC2)nc1 [Example 199]; 6.00 to 7.00
Cc1ccc(Cc2nnc(N3CCN(c4ccc(C#N)cn4)CC3)c3ccccc23)cc1 [Example 173]; 6.00 to 7.00
c1ccc(Cc2nnc(N3CCN(c4ccc5ccccc5c4)CC3)c3ccccc23)cc1 [Example 31]; 5.00 to 6.00

## Input Value lookup for pIC50; key = N#Cc1ccc(N2CCN(c3cnc(Cc4ccccc4)c4ccccc34)CC2)nc1 [Example 79]
## Output 6.00 to 7.00

## Input I would be grateful if you could share the reported pIC50 for CN1CCN(C(=O)c2ccc(N3CCN(c4nnc(Cc5ccccc5)c5ccccc45)CC3)nc2)CC1 [Example 54i] .
## Output 5.00 to 6.00

## Input Which value of pIC50 has been reported for CC(O)(CO)c1ccc(N2CCN(c3nnc(Cc4ccccc4)c4ccccc34)CC2)nc1 (centres unmarked) [Example 167] in the records?
## Output 6.00 to 7.00

## Input Endpoint output: pIC50 of O=C(NCc1ccccc1)c1ccc(N2CCN(c3nnc(Cc4ccccc4)c4ccccc34)CC2)nc1 [Example 54l] . Value?
## Output 6.00 to 7.00

## Input Using the record for CC(O)(CO)c1cnc(N2CCN(c3nnc(Cc4ccccc4)c4ccccc34)CC2)cn1 (centres unmarked) [Example 166] , report its pIC50.
## Output 6.00 to 7.00

## Input Reported pIC50, molecule CC(C)(NC(=O)OCc1ccccc1)c1ccc(N2CCN(c3nnc(Cc4ccccc4)c4ccccc34)CC2)nc1 [Example 123] : ____
## Output 6.00 to 7.00

## Input What does the data say about its pIC50? Entry: CCOC(=O)c1ccc(N2CCN(c3nnc(Cc4ccc(Cl)cc4Cl)c4ccccc34)CC2)nc1 [Example 186]
## Output 6.00 to 7.00

## Input Quick one: pIC50 for c1ccc2c(N3CCN(c4nnc(Cc5ccncc5)c5ccccc45)CC3)cccc2c1 [Example 36] ?
## Output 5.00 to 6.00

## Input Entry under review: CCOC(=O)c1ccc(N2CCN(c3nnc(Cc4ccccc4Cl)c4ccccc34)[C@@H](C)C2)nc1 [Example 188] . Reported pIC50?
## Output 6.00 to 7.00

## Input // returns reported pIC50 for input C[C@@H]1CN(c2nnc(Cc3ccccc3)c3ccccc23)[C@@H](C)CN1c1ccc(C#N)cn1 [Example 119]
## Output 5.00 to 6.00

## Input Given the molecule c1ccc(Cc2nnc(N3CCN(c4ccccn4)CC3)c3ccccc23)cc1 [Example 24] , what is its reported pIC50?
## Output 5.00 to 6.00

## Input What does the record list as pIC50 for Cc1ccccc1Cc1nnc(N2CCN(c3ccc(C(C)(C)O)cn3)CC2)c2ccccc12 [Example 194] ?
## Output 6.00 to 7.00

Where do these numbers come from? They come from patent US8536168B2.
